For each entry below, report its TGI value.
- Tested on: IGROV1 ovarian
- assay-text: NCI tumour cell line growth inhibition, 48 h

Prompt: Enter reported TGI observed with IGROV1 ovarian for CCC(=O)Nc1ccc(N2C(=O)C(Cl)C2c2ccc(SC)cc2)cc1 (centres undefined)
Completion: > 100 µM

Prompt: Lab request: please report TGI under test system IGROV1 ovarian for C#CCOc1cccc(Nc2ncnc3cc(NC(=O)CCl)ccc23)c1
Completion: 11.9 µM

Prompt: So what TGI did O=C1c2ccccc2-c2c1c1ccccc1c(=O)n2CCCn1ccnc1 get with IGROV1 ovarian?
Completion: > 100 µM

Prompt: Recorded TGI for OCC#Cc1ccccc1C#CCCCCCC#Cc1ccccc1C#CCO with IGROV1 ovarian, please?
Completion: 43.3 µM

Prompt: Kindly state the measured TGI obtained for O=C1c2ccc(O)c(O)c2C(=O)c2c(O)ccc(O)c21 with IGROV1 ovarian.
Completion: > 100 µM

Prompt: Item: Cc1cc(C)c(-n2c(-c3ccc(Br)cc3)cs/c2=N\N=C2C=C(C(C)(C)C)C(=O)C(C(C)(C)C)=C2)c(C)c1 Test system: IGROV1 ovarian Read-out: TGI Value: ?
Completion: > 100 µM

Prompt: # get_value(readout= TGI, system= IGROV1 ovarian) for Cc1cc(Cl)ccc1NC(=O)CC1SC(=Nc2ccccc2Cl)NC1=O (centres undefined)
Completion: > 100 µM

Prompt: Form entry - test system: IGROV1 ovarian; read-out: TGI; compound: N#Cc1c(N)nc(Sc2ccccc2N)c(C#N)c1-c1ccc(Cl)cc1
Completion: 33.6 µM

Prompt: Lookup: TGI / IGROV1 ovarian / CCC(C#N)NCc1cccc(CNC(C#N)CC)c1 (centres undefined)
Completion: > 100 µM

Where do these numbers come from? They come from PubChem BioAssay (NCI).
